tested on: Enterococcus faecalis; experiment: In vitro antibacterial activity against Enterococcus faecalis EFS008 (E.f.2); format: functional
Quick list: MIC per entry.
Express your answer in µg/mL, writing the number without its unit.

Recorded results for 4 compounds are shown here.
CCOC(=O)c1cnoc1C1=CCN(c2ccc(N3C[C@H](CNC(C)=O)OC3=O)cc2F)CC1 :: 8
CC(=O)NC[C@H]1CN(c2ccc(N3CC=C(c4oncc4C(N)=O)CC3)c(F)c2)C(=O)O1 :: 1
CC(=O)NC[C@H]1CN(c2ccc(N3CC=C(c4conc4C#N)CC3)c(F)c2)C(=O)O1 :: 2
CC(=O)NC[C@H]1CN(c2ccc(N3CC=C(c4conc4Cl)CC3)c(F)c2)C(=O)O1 :: 8

Consider `CC(=O)NC[C@H]1CN(c2ccc(N3CC=C(c4oncc4Cl)CC3)c(F)c2)C(=O)O1` . Its measured MIC is 64

Consider `CC(=O)NC[C@H]1CN(c2ccc(N3CC=C(c4oncc4C(=O)N(C)C)CC3)c(F)c2)C(=O)O1` . Its measured MIC is 8

Consider `CC(=O)NC[C@H]1CN(c2ccc(N3CC=C(c4oncc4C)CC3)c(F)c2)C(=O)O1` . Its measured MIC is 4

Consider `CC(=O)NC[C@H]1CN(c2ccc(N3CC=C(c4oncc4C#N)CC3)c(F)c2)C(=O)O1` . Its measured MIC is 4
